Reference source for all entries: PubChem BioAssay

Assay: growth inhibition of DIPG glioma cells, dose response, cell-based, SU-DIPG-IV, MIPE4.0, CellTiter-Glo, qHTS (AID 1347063);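 also: compound exposure lasted 48 hours before the viability readout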
Settings: SU-DIPG-IV viability, CellTiter-Glo ATP luminescence
Records with an inconclusive call do not appear. Active and inactive are the calls of the source. The limit is not given here; nearly all actives have AC50 up to about 30 µM.
Give your call using only these classes: T for active, F for inactive

Structure: COc1ccc([C@@H]2CC(=O)c3c(O)cc(O[C@@H]4O[C@H](CO[C@@H]5O[C@@H](C)[C@H](O)[C@@H](O)[C@H]5O)[C@@H](O)[C@H](O)[C@H]4O)cc3O2)cc1O
Assigned Label: F
--
Structure: FC(F)c1nc2ccccc2n1-c1nc(N2CCOCC2)nc(N2CCOCC2)n1
Assigned Label: T
--
Structure: COc1cc(C(C)=O)ccc1OCCCN1CCC(c2noc3cc(F)ccc23)CC1
Assigned Label: F

Name the outcome recorded for N[C@@H](Cc1c[nH]c2ccc(O)cc12)C(=O)O in the assay.
F

* * *

Assay: viability rescue of complex I mutant cybrids, primary screen, cell-based, galactose medium, ATP luminescence (AID 1645843);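 also: positive z means more ATP and so rescue of galactose-driven cybrid death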
Details: complex I mutant cybrid cells, 72 h, stronger effect = higher value
Property Measured: z-score
Please reply with the value in numeric form only.

Use the examples below as a reference point.
Compound: Cc1cccc(C)c1NC(=O)C1CCCCN1C (stereo not drawn)
Value Measured: 0.56

Compound: C[C@@H](C1=C(CCN(C)C)Cc2ccccc21)c1ccccn1
Value Measured: -0.445

With those in mind, consider the next compound.
What value of z-score has been recorded for this entry: COc1ccc(-c2cc(=O)c3c(OC)c(OC)c(OC)c(OC)c3o2)cc1OC
0.845

* * *

Reported luciferase signal values for a set of molecules
Target: Mitogen-activated protein kinase 7 (Homo sapiens) (UniProt Q13164)
Sequence (Q13164 whole entry, looked up, the tested form may be a part): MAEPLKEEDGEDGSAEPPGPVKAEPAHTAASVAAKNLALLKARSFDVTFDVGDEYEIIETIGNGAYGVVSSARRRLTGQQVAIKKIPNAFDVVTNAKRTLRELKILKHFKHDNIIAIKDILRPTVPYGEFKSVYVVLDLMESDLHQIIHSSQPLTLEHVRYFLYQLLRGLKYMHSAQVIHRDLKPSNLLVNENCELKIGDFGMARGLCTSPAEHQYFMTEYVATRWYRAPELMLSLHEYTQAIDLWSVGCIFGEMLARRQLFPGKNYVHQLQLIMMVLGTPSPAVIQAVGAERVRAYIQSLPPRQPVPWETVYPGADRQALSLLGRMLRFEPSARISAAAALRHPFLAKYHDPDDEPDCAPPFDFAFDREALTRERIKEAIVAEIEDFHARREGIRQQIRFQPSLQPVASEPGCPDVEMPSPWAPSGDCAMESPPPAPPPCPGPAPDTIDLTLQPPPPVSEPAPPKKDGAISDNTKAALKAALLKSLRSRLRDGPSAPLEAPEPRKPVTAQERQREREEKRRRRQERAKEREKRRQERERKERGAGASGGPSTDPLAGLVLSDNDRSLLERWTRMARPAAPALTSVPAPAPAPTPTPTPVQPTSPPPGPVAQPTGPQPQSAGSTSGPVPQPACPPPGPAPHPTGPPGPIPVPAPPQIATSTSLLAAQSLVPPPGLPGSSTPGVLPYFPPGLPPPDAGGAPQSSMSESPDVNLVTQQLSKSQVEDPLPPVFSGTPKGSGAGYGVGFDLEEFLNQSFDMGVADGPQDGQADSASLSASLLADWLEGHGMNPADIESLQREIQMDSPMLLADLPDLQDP
Test: ERK5 transactivation activators in reporter cells, primary screen, cell-based, HTS (AID 1508626);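 also: luciferase driven by Gal4-ERK5 fusion binding five Gal4 sites before minimal TATA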
Details: HeLa Gal4-ERK5 transactivation, 18 h, at 5 µM, stronger effect = higher value
The source made the active and inactive calls.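 Rule for the calls: active = luciferase signal above three times the same-plate solvent-only control wells; inactive = the rest.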

Use the examples below as a reference point.
Molecule: C[C@]12CC[C@H]3C(=CCc4cc(O)ccc43)[C@@H]1CCC2=O
Property Measured: luciferase signal
Value Measured: 84 AU (inactive)

Molecule: C=C1CCC2C(CC2(C)C)C(=C)CC/C1=N/O (centres undefined)
Property Measured: luciferase signal
Value Measured: 88 AU (inactive)

What value of luciferase signal has been recorded for this entry: CC1/C(=N/O)C[C@@H]2C[C@H]1C2(C)C (some centres undefined)
52 AU (inactive)

What value of luciferase signal has been recorded for this entry: CC(=O)O[C@H]1CC[C@@]2(C)C(=CC(=O)[C@H]3[C@@H]4CC[C@H]([C@H](C)CCCC(C)C)[C@@]4(C)CC[C@@H]32)C1
76 AU (inactive)

* * *

Assay: differential killing of epithelial or mesenchymal cells, primary screen, imaging, PC-3E GFP, TEM4-18 mCherry, co-culture (AID 1345086);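 also: cells exposed to compound for 72 h before imaging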;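 as to red/green cell ratio (normalised): normalised mesenchymal count divided by normalised epithelial count so high means epithelial killing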
Conditions: imaging cell counts, at 1 µM, actives lie on both sides, counts scaled to control wells, 1 = unselective
The source made the active and inactive calls.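 How the source made its calls: active means compounds killing one labelled cell type while sparing the other, by normalised counts and ratio limits, not self-fluorescent; inactive means the rest.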
Property Measured: red/green cell ratio (normalised)

Molecule: OC1C(O)C(O)C(O)C(O)C1O (stereo unspecified)
Value Measured: 1.17 (inactive)

Molecule: CN[C@H](CC(=O)O)C(=O)O
Value Measured: 1.02 (inactive)

Molecule: C=NC(C(=O)NC1C(=O)N2C1SC(C)(C)C2C(=O)O)c1ccccc1 (stereo unspecified)
Value Measured: 1.12 (inactive)

What value of red/green cell ratio (normalised) has been recorded for this entry: c1ccc2c(c1)CN1CCCC1=N2
1.13 (inactive)

What value of red/green cell ratio (normalised) has been recorded for this entry: CC(C)(C(=O)O)c1ccc(C(O)CCCN2CCC(C(O)(c3ccccc3)c3ccccc3)CC2)cc1 (stereo unspecified)
1.14 (inactive)

What value of red/green cell ratio (normalised) has been recorded for this entry: COc1ccc2c(c1)OC1(O)COc3cc(OC)c(OC)cc3C1=C2 (stereo unspecified)
1.07 (inactive)

What value of red/green cell ratio (normalised) has been recorded for this entry: O=c1c(O)c(-c2ccc(O)cc2O)oc2cc(O)cc(O)c12
0.97 (inactive)

* * *

Reported normalised cell number values for a set of compounds
Test: differential killing of epithelial or mesenchymal cells, primary screen, imaging, PC-3E GFP, TEM4-18 mCherry, co-culture (AID 1345086);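 also: cells exposed to compound for 72 h before imaging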
Details: imaging cell counts, measured here: epithelial PC-3E GFP cell survival, at 1 µM
Please reply with the value in numeric form only.

Compound: Cc1cc(/C=C/c2ccc3cc(N(C)C)ccc3[n+]2C)c(C)n1-c1ccccc1
normalised cell number: 0.4
--
Compound: O=C(/C=C/c1ccccc1)c1ccc(O[C@@H]2O[C@H](CO)[C@@H](O)[C@H](O)[C@H]2O)cc1O
normalised cell number: 0.9
--
Compound: CC(C(=O)O)c1ccc(-c2ccccc2)c(F)c1 (stereo not given)
normalised cell number: 1.07
--
Compound: C=C1c2c(Cl)ccc(O)c2C(O)=C2C(=O)[C@]3(O)C(O)=C(C(N)=O)C(=O)[C@@H](N(C)C)[C@@H]3[C@@H](O)[C@H]12
normalised cell number: 0.99
--
Compound: COc1cc(Cc2cnc(N)nc2N)cc(OC)c1OC
normalised cell number: 0.91
--
Compound: CC(C(=O)O)[C@H]1CCC2C3CC=C4C[C@@H](O)CC[C@]4(C)C3CC[C@@]21C (stereo not given in full)
normalised cell number: 1.12
--
Compound: COc1ccc2c(c1)OC[C@@H](Cc1ccc(OC)c(OC)c1)[C@@H]2O
normalised cell number: 0.92
--
Compound: Oc1cc(O)c2c(c1)O[C@H](c1ccc(O)c(O)c1)[C@@H](O)C2
normalised cell number: 1.02
--
Compound: CCCCOC(=O)c1ccc(O)cc1
normalised cell number: 1.43
--
Compound: Cc1cc(O)cc(=O)o1
normalised cell number: 1.03

What value of normalised cell number has been recorded for this entry: COc1ccc(-c2oc3ccccc3c(=O)c2O)cc1OC
1.06

What value of normalised cell number has been recorded for this entry: CCC/C=C1\OC(=O)C2=C1CCC=C2
0.83

What value of normalised cell number has been recorded for this entry: CC(C)CCCC(C)N (stereo not given)
0.96

What value of normalised cell number has been recorded for this entry: CC(=O)/C(=C\c1ccccc1)CC(=O)O
1.18

What value of normalised cell number has been recorded for this entry: c1coc(CNc2ncnc3nc[nH]c23)c1
1.05

* * *

Target: ATP-dependent translocase ABCB1 (Homo sapiens)
Assay: MDR1 (ABCB1) efflux transporter inhibition, cell-based (AID 377)
Settings: MDR1-expressing cells, fluorescent substrate accumulation slope; concentration not given here
Records with an inconclusive call do not appear. Activity calls are given as the source filed them. Rule as the data show it: active = fluorescence slope change above about 50%; inconclusive = mostly about 31% to 49%; inactive = weaker than that.
Give your call using only these classes: active, inactive

Compound: NCCCCN=C(N)N
Assigned Label: active
--
Compound: CC1(C)[C@@H](OC(=O)CCC(=O)O)CC[C@]2(C)[C@H]3C(=O)C=C4[C@@H]5C[C@@](C)(C(=O)O)CC[C@]5(C)CC[C@@]4(C)[C@]3(C)CC[C@@H]12
Assigned Label: active

Name the outcome recorded for CCCCCCC[N+](CC)(CC)CCCCc1ccc(Cl)cc1 in the assay.
active

Name the outcome recorded for COc1cc(N)c(Cl)cc1C(=O)NC1CCN(CCCOc2ccc(F)cc2)CC1OC (configuration not stated) in the assay.
active

Name the outcome recorded for CN1C[C@H](C(=O)N[C@]2(C)O[C@@]3(O)[C@@H]4CCCN4C(=O)[C@H](Cc4ccccc4)N3C2=O)C[C@@H]2c3cccc4[nH]cc(c34)C[C@H]21 in the assay.
active

Name the outcome recorded for C[C@@H]1CCC[C@H](C)N1 in the assay.
inactive

Name the outcome recorded for NC(=NCc1ccccc1)NC(=O)c1nc(Cl)c(N)nc1N in the assay.
inactive

* * *

Assay: sensitizers of A549 cells to miR-34 induction, primary screen, imaging, A549 dox-inducible miR-34, nuclei and caspase counts (AID 1347080)
Conditions: A549 miR-34 inducible, Hoechst nuclei count, 48 h; stronger effect = lower value; cell number ratio, induced over uninduced
Reported fold change values for a set of compounds
Please reply with the value in numeric form only.

Use the examples below as a reference point.
Structure: CSc1ccc(C(=O)c2[nH]c(=O)[nH]c2C)cc1
Property Measured: fold change
Value Measured: 0.968

Structure: CN[C@H](CC(C)C)C(=O)N[C@H]1C(=O)N[C@@H](CC(N)=O)C(=O)N[C@H]2C(=O)N[C@H]3C(=O)N[C@H](C(=O)N[C@H](C(=O)O)c4cc(O)cc(O)c4-c4cc3ccc4O)[C@H](O)c3ccc(c(Cl)c3)Oc3cc2cc(c3O[C@@H]2O[C@H](CO)[C@@H](O)[C@H](O)[C@H]2O[C@H]2C[C@](C)(N)[C@H](O)[C@H](C)O2)Oc2ccc(cc2Cl)[C@H]1O
Property Measured: fold change
Value Measured: 0.946

Structure: O=C1CC[C@@H](C(=O)O)N1
Property Measured: fold change
Value Measured: 0.878

Structure: CO[C@H]1C[C@H](O[C@H]2[C@H](C)[C@@H](O[C@@H]3O[C@H](C)C[C@H](N(C)C)[C@H]3O)[C@@H](C)C[C@@]3(CO3)C(=O)[C@H](C)[C@@H](O)[C@@H](C)[C@@H](C)OC(=O)[C@@H]2C)O[C@@H](C)[C@@H]1O
Property Measured: fold change
Value Measured: 0.882

With those in mind, consider the next compound.
What value of fold change has been recorded for this entry: CCCCCCCCOc1ccccc1C(=O)Nc1ccc(C(=O)OCC[N+](C)(CC)CC)cc1
0.913
